# assayTarget: T1, recombinant canine β NGF (canine, UniProt Q29074 110-229 (pig entry))
# T1 chain: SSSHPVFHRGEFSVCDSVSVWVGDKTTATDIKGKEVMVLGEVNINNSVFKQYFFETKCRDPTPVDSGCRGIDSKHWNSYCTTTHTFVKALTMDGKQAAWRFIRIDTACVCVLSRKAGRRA
# testSummary: cell-based or functional assay
Entries whose PathHunter IC50 (441 pM canine NGF) is below 0.2 nM take t; entries at or above 0.2 nM take f.

binder="PR-1254982 (antibody, mouse IgG1, V domains shown, also called 3F7; ML130-3F7.4A8) VH: QVQLKESGPGLVAPSQSLSITCTVSGFSLTGYNINWVRQPPGKGLEWLGMIWGYGDTDYNSALKSRLSISKDNSKSQVFLKMNSLQTDDTARYYCARDHYGGNDWYFDVWGTGTTVTVSS VL: DIQMTQTTSSLSASLGDRVTITCRASQDITNYLNWYQQKPDGTVKLLIYYTSRLHSGVPSRFSGSGSGTDYSLTISNLDQEDIATYFCQQGKTLPRTFGGGTKLEIKR" classassignment=t
binder="PR-1254977 (antibody, mouse IgG1, V domains shown, also called 21D4; ML129-21D4.4A11) VH: EVQLQQSGAELVKPGASVKLSCTASGFNIKDTYIYWVKQRPEQGLEWIGRIDPANGNTIYASKFQGKASITADTSSNTAYMQLSSLTSGDTAVYYCAGYGYYAYWGQGTTLTVSS VL: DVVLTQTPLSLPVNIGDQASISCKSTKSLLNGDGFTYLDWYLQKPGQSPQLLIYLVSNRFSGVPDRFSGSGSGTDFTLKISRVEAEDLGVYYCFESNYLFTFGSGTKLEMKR" classassignment=t
binder="PR-1254980 (antibody, mouse IgG1, V domains shown, also called 23F1; ML129-23F1.4G3) VH: EVQLQQSGAELVKPGASVKLSCTASGFNIKDTYIYWVKQRPEQGLEWIGRIDPANGNTIYASKFQGKATITADTSSNTAYMQLSSLTSGDTAVYYCAGYGYYAYWGQGTTLTVSS VL: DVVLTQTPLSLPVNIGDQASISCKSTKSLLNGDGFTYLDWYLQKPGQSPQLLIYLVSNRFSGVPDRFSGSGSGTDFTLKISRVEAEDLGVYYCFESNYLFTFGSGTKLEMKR" classassignment=f
binder="PR-1254973 (antibody, mouse IgG2b, V domains shown, also called 2B12; ML129-2B12.5G9) VH: QVQLQQPGAELVKPGASVKLSCKASGYTFTNYWMHWVKQRPGQGLEWIGRIDPYGGGTKHNEKFKRKATVTADKSSSTAYILLSSLTSEDSAVYYCTRSGYDYYFDVWGTGTTVTVSS VL: DIQMTQSPASLSASVGETVTVTCRASENIYSFLAWHQQKQGKSPQLLVYNANTLAEGVPSRFSGSGSGTQFSLKINSLQPEDFGSYYCQHHFGTPFTFGSGTKLEIKR" classassignment=t
binder="PR-1254972 (antibody, mouse IgG2b, V domains shown, also called 20B10; ML129-20B10.3F4) VH: EVHLVESGGGLVKPGGFLILSCAASGFTFSDYYMFWIRQTPGKRLEWVATISDGGSYTYYTDNVKGRFTISRDNVKNNLYLQMSHLKSADTAMYYCARDWSDSEGFAYWGQGTLVTVSA VL: DVLMTQTPLSLPVSLGDQASISCRSSQSIVQSNGNTYLEWYLQKPGQSPKLLIYKVSNRFSGVPDRFSGSGSGTDFTLKISRVEAEDLGVYYCFQGSHVPFTFGSGTKLEIKR" classassignment=f

Turning to the following binder.
Given PR-1254981 (antibody, mouse IgG1, V domains shown, also called 14A9; ML130-14A9.5B12) VH: EVQLVESGGGAVKPGGSLTLSCAASGFTFSNHYMYWVRQTPEKRLEWVASISDGGAYTFYPDTVKGRFTISRDNVNNNLYLQMRHLKSEDTAMYYCTREESANNGFAFWGQGTLVTVSA VL: DVLMTQTPLSLPVSLGDQASISCRSSQSILHSNGNTYLEWYLQKPGQSPNLLIYRVSNRFSGVPDRFSGSGSGTDFTLKISRVEAEDLGVYYCFQGAHVPFTFGSGTKLEIKR , is recorded PathHunter IC50 (441 pM canine NGF) strictly lower than 0.2 nM?
f
